Value source: paper PMC8232621

# System Under Test: P-glycoprotein (P-gp) (Homo sapiens, UniProt P08183)
# Construct: P-glycoprotein (P-gp) activity assessed by fluorescence spectroscopy in Caco-2 cells; endogenous in cells; host or cells: Caco-2 cells (ECACC)
# Sequence (P08183 whole entry): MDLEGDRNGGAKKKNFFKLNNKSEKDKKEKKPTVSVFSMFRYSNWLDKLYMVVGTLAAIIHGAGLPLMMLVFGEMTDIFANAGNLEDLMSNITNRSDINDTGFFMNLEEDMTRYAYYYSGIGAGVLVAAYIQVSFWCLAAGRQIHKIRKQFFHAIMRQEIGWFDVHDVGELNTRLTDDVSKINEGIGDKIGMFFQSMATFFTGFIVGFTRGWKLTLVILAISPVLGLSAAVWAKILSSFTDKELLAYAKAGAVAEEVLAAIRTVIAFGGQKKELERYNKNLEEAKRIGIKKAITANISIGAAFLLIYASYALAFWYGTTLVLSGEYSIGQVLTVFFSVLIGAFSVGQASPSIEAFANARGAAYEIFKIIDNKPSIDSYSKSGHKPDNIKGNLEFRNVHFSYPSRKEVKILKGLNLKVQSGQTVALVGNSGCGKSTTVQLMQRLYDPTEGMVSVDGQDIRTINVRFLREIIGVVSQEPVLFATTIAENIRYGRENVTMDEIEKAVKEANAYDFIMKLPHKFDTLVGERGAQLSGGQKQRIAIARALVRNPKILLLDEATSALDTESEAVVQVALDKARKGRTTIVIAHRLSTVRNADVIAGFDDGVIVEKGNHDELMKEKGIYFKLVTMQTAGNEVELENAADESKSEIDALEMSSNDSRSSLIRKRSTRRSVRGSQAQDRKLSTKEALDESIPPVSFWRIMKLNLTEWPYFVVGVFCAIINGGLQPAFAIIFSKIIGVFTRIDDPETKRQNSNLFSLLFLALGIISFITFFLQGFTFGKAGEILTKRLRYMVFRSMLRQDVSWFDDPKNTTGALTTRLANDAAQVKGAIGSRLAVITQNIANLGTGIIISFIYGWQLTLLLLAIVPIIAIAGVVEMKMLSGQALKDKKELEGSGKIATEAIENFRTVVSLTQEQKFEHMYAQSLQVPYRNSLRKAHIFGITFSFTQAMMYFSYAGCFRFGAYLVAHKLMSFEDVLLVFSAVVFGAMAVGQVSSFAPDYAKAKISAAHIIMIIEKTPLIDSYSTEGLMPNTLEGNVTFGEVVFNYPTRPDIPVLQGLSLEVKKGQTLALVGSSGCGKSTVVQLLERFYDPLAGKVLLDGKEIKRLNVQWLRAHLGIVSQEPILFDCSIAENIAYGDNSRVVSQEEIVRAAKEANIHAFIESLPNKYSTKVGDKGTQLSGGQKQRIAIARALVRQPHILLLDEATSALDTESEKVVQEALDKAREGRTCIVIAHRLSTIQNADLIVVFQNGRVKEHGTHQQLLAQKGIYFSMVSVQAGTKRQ
# Assay Protocol: P-gp transport activity, RHO 123 accumulation in Caco-2 cells in presence of compounds (90 min)
# Format: cell-based
# Conditions: 20 µM only during the 90 min incubation with RHO 123
Measured Parameter: P-gp activity (control cells 100%)

Solved cases (2 shown):
[[record]]
item_smiles = "CCCOc1ccc(NS(=O)(=O)c2ccc(C(=O)O)cc2)c2c(=O)c3ccccc3sc12"
measured_parameter = "P-gp activity (control cells 100%)"
result = "82%"

[[record]]
item_smiles = "CCCOc1ccc(NS(=O)(=O)c2ccc(N)cc2)c2c(=O)c3ccccc3sc12"
measured_parameter = "P-gp activity (control cells 100%)"
result = "85%"


P-gp activity (control cells 100%) recorded for this molecule, `CCCOc1ccc(Br)c2c(=O)c3ccccc3sc12` , is 116%
